These entries and their values trace back to PubChem BioAssay (NCI).

Test system: BT-549 breast
ASSAY_METHOD_TEXT: NCI-60 one-dose screen, 48 h (100 = growth as untreated, 0 = no growth, -100 = all killed)
CONDITION_LABEL: 10 µM unless noted
About 83,000 compounds went through this panel and 20% of them were active in at least one assay; those are over-represented in the sample as a whole.

>  <MOLECULE>
OC(c1ccccc1)c1nnc(SCc2ccccc2)n1Cc1ccccc1 (stereo unspecified)

>  <UNIT_ABBREV>
%

>  <growth>
88.4

$$$$
>  <MOLECULE>
COc1ccccc1C(=O)/C=C/c1ccccc1

>  <UNIT_ABBREV>
%

>  <growth>
77.5

$$$$
>  <MOLECULE>
COc1ccc(Cn2cc(Cn3cc(C=C4C(=O)NC(=O)NC4=O)c4ccccc43)nn2)cc1

>  <UNIT_ABBREV>
%

>  <growth>
99.5

$$$$
>  <MOLECULE>
Nc1nonc1-n1nncc1-c1cccnc1

>  <UNIT_ABBREV>
%

>  <growth>
105

$$$$
>  <MOLECULE>
COc1cc(/C=C2\CN(S(=O)(=O)c3ccccc3)C/C(=C\c3cc(CN4CCCC4)c(O)c(OC)c3)C2=O)cc(CN2CCCC2)c1O

>  <UNIT_ABBREV>
%

>  <growth>
33.5

$$$$
>  <MOLECULE>
COc1ccc(/C=C2\N=C(c3ccccc3)N(c3ccc(-c4nc5ccc(C)cc5s4)cc3)C2=O)cc1

>  <UNIT_ABBREV>
%

>  <growth>
92.8

$$$$
>  <MOLECULE>
COc1cc(C2C(C#N)=C(N)OC3=C2C(=O)c2ccccc2C3=O)cc(OC)c1O (stereo unspecified)

>  <UNIT_ABBREV>
%

>  <growth>
57.7

$$$$
>  <MOLECULE>
COc1ccc(-c2nc(N3CCN(C(=O)C4CCCCC4)CC3)c3c4c(sc3n2)CCCC4)cc1

>  <UNIT_ABBREV>
%

>  <growth>
61.4

$$$$
>  <MOLECULE>
Clc1ccc(-c2nnc(COc3ccc(C4=NNC(c5ccco5)C4)cc3)o2)cc1 (stereo unspecified)

>  <UNIT_ABBREV>
%

>  <growth>
81.6

$$$$
>  <MOLECULE>
CCOC(=O)c1cnc2ccc(Cl)cc2c1NCCCN(C)C

>  <UNIT_ABBREV>
%

>  <growth>
31.6

$$$$
>  <MOLECULE>
COc1ccc(-c2cn[nH]c2-c2cc(OC)c(OC)c(OC)c2)cc1OCc1ccccc1

>  <UNIT_ABBREV>
%

>  <growth>
60

$$$$
>  <MOLECULE>
COC(=O)C1(C)COP(=O)(Nc2ccc(OC)cc2)OC1 (stereo unspecified)

>  <UNIT_ABBREV>
%

>  <growth>
98.4

$$$$
>  <MOLECULE>
COc1ccc2c(c1)C=C1CSCC3=Cc4cc(OC)ccc4OC13O2

>  <UNIT_ABBREV>
%

>  <growth>
30.8

$$$$
>  <MOLECULE>
O=C(N/N=C/c1ccccc1O)C(=O)Nc1ccc(F)cc1

>  <UNIT_ABBREV>
%

>  <growth>
59.3

$$$$
>  <MOLECULE>
CC(=O)c1ccc(NC(=O)Nc2ccc(S(=O)(=O)Nc3ccc(Cl)nn3)cc2)cc1

>  <UNIT_ABBREV>
%

>  <growth>
107

$$$$
>  <MOLECULE>
CC(=Nc1ccccc1)C1=C(O)C(Cc2ccc(F)cc2)NC1=O (stereo unspecified)

>  <UNIT_ABBREV>
%

>  <growth>
36.8

$$$$
>  <MOLECULE>
COc1ccc(C2=C(c3cccc(OC)c3)C(=O)c3ccc(C)nc3C2=O)cc1

>  <UNIT_ABBREV>
%

>  <growth>
57.5

$$$$
>  <MOLECULE>
CCN1C(=O)N(c2ccccc2)C2NN=c3s/c(=C4\C(=O)N(C(C)C)c5ccccc54)c(=O)n3C21 (stereo unspecified)

>  <UNIT_ABBREV>
%

>  <growth>
12.7

$$$$
>  <MOLECULE>
COc1ccc(N)c(-c2cc3c(c4c2[nH]c2ccc(OC)cc24)CCCC3)c1

>  <UNIT_ABBREV>
%

>  <growth>
74.6

$$$$
>  <MOLECULE>
C=CCN1C(=O)/C(=c2\sc3n(c2=O)NC2C(N=3)N(CC)C(=O)N2CC)c2ccccc21 (stereo unspecified)

>  <UNIT_ABBREV>
%

>  <growth>
48.6

$$$$
>  <MOLECULE>
CSc1nc2c(c(=O)[nH]1)N=C1c3ccccc3C(=O)C1C(c1ccccc1)N2 (stereo unspecified)

>  <UNIT_ABBREV>
%

>  <growth>
40

$$$$

---

Entries and their growth values follow.
Tested on: SW-620 colon
ASSAY_METHOD_TEXT: NCI-60 one-dose screen, 48 h (100 = growth as untreated, 0 = no growth, -100 = all killed)
CONDITION_LABEL: 10 µM unless noted
The panel holds about 83,000 compounds, 20% with a hit somewhere; the sample as a whole holds those more often.

>  <COMPOUND>
O=C1C(=O)c2c(ccc3ccccc23)-c2ccccc21

>  <UNIT_ABBREV>
%

>  <growth>
-73

$$$$
>  <COMPOUND>
O=C(Nc1ccc(-c2nc3cc4ccccc4cc3[nH]2)cc1)c1cccc(Br)c1

>  <UNIT_ABBREV>
%

>  <growth>
26.9

$$$$
>  <COMPOUND>
CC(C)CCOc1ccc(-c2n[nH]c(C(F)(F)F)c2-c2cncc(C#N)c2)c(O)c1

>  <UNIT_ABBREV>
%

>  <growth>
14.3

$$$$
>  <COMPOUND>
COC(=O)c1c2c(c(C)[n+]([O-])c1C)C(=O)C(NCc1ccc(F)c(F)c1)=CC2=O

>  <UNIT_ABBREV>
%

>  <growth>
3.6

$$$$
>  <COMPOUND>
NCCOc1ncccc1/C=C1\c2ccccc2-c2ccc([N+](=O)[O-])cc21

>  <UNIT_ABBREV>
%

>  <growth>
-50.3

$$$$
>  <COMPOUND>
Oc1c(CN2CCN(c3ccccc3F)CC2)cc(Br)c2cccnc12

>  <UNIT_ABBREV>
%

>  <growth>
-13.5

$$$$
>  <COMPOUND>
O=C(Nc1ccc(Br)cc1F)c1cc(Cl)ccc1O

>  <UNIT_ABBREV>
%

>  <growth>
11.7

$$$$
>  <COMPOUND>
CSc1nc2c(c(=O)[nH]1)N=C1c3ccccc3C(=O)C1C(c1ccccc1)N2 (configuration not stated)

>  <UNIT_ABBREV>
%

>  <growth>
29.8

$$$$
>  <COMPOUND>
COc1cc(/C=C2\Oc3cc(OCCCN4CCCC4)ccc3C2=O)cc(OC)c1

>  <UNIT_ABBREV>
%

>  <growth>
5.52

$$$$
>  <COMPOUND>
CC[C@H](C)[C@@H](C(=O)OC)n1cc(CNC(=O)[C@@H](Cc2ccccc2)NC(=O)OCc2ccccc2)nn1

>  <UNIT_ABBREV>
%

>  <growth>
102

$$$$
>  <COMPOUND>
CCOc1cc(Cl)c(C(C)NC(=O)c2cccc(OC)c2)cc1OCC (configuration not stated)

>  <UNIT_ABBREV>
%

>  <growth>
-50.9

$$$$
>  <COMPOUND>
CCN(CC)CCCNc1ccnc2cc3ccccc3cc12

>  <UNIT_ABBREV>
%

>  <growth>
83

$$$$
>  <COMPOUND>
Nc1ccc(C2c3ccccc3Oc3ccccc32)cc1

>  <UNIT_ABBREV>
%

>  <growth>
101

$$$$
>  <COMPOUND>
NC1C(N)C(N)C1N (configuration not stated)

>  <UNIT_ABBREV>
%

>  <growth>
106

$$$$
>  <COMPOUND>
O=C(CN1C=NC2C(N3CCOCC3)=NC=NC21)c1cccc2ccccc12 (configuration not stated)

>  <UNIT_ABBREV>
%

>  <growth>
96

$$$$
>  <COMPOUND>
COc1cc(/C=C/C(=O)c2ccc(Nc3nc(NCCO)nc(N4CCOCC4)n3)cc2)cc(OC)c1OC

>  <UNIT_ABBREV>
%

>  <growth>
7.8

$$$$
>  <COMPOUND>
NCCOc1ncccc1/C=C1\c2ccccc2-c2ccc(F)cc21

>  <UNIT_ABBREV>
%

>  <growth>
14.7

$$$$
>  <COMPOUND>
COc1c(B(O)O)cccc1-c1nc2ccc3[nH]ncc3c2c2c1C1CCC2C1 (configuration not stated)

>  <UNIT_ABBREV>
%

>  <growth>
34.3

$$$$
>  <COMPOUND>
CCOC(=O)c1cc2c(n1Cc1ccccc1)-c1oncc1CCC2

>  <UNIT_ABBREV>
%

>  <growth>
43

$$$$
>  <COMPOUND>
O=C(Nc1ccc(I)cc1F)c1cc(F)ccc1O

>  <UNIT_ABBREV>
%

>  <growth>
7.82

$$$$
>  <COMPOUND>
CCCCc1ccc(NS(=O)(=O)c2cc3c4c(c2)CCN4C(=O)CC3)cc1

>  <UNIT_ABBREV>
%

>  <growth>
25.3

$$$$
>  <COMPOUND>
Cc1ccc2nc(NC(=O)CSC(=S)N3CCN(c4ccccc4)CC3)sc2c1

>  <UNIT_ABBREV>
%

>  <growth>
109

$$$$
